This listing pairs variants with measured self-cleavage.
B1: OR4K15 (parent)
chain: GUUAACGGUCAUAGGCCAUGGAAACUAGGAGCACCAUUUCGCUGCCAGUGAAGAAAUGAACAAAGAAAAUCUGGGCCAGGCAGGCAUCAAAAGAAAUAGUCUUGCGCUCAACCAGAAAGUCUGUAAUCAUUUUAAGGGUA

Variants of: B1
Assay: self-cleavage, relative activity (ratio to wild type); higher = more cleavage; in vitro, sequencing; the parent is a self-cleaving ribozyme
No unit in the answer, only the number.

Here is how some variants turned out for self-cleavage.
[[record]]
primary_sequence = "GUUAACGGUCAUAGGCCAUGGAAACUAGGAGCACCAUUUCGCUGCCAGUGAAGAAAUGAACAAAGAAAAUCUGGGCCAGGCAGGCAUCAAAAGAAAUAGUCAUGCGCUCAACCAGAAAGACUGUAAUCAUUUUAAGGGUA [U102A U120A]"
reported = 1.01

[[record]]
primary_sequence = "GUUAACGGUCAUAGGCCAUGGAAACUAGGAGCACCAUUUCGCUGCCAGUGAAGAAAUGAACAAAGAAAAUCUGGGCCAGGCAGGCAUCAAAAGAAAUAGUCUUGCGCUUAACCAGAAAGUCUGUAAUCACUUUAAGGGUA [C109U U130C]"
reported = 0.35

[[record]]
primary_sequence = "GUUAACGGUCAUAGGCCAUGGAAACUAGGAGCACCAUUUCGCUGCCAGUGAAGAAAUGAACAAAUAAAAUCUGGGCCAGGCAGGCGUCAAAAGAAAUAGUCUUGCGCUCAACCAGAAAGUCUGUAAUCAUUUUAAGGGUA [G65U A86G]"
reported = 0.19

[[record]]
primary_sequence = "GUUAACGGUCAUAGGCCAUGGAAACUAGGAGCACCAUUUCGCUGCCAGCGAAGAAAUGAACAAAGAAAAUCUGGGCCAGGCAGGCAUCAAAAGAAAUAGUCUUGCGCUCAACCAGAAAGUCUGUAAUCAAUUUAAGGGUA [U49C U130A]"
reported = 0.28

[[record]]
primary_sequence = "GUUAACGGUCAUAGGCCAUGGAAACUAGGAGCACCAUUUCGCUGCCAGUGAAGAAAUGAACAAAGAAAAUCUGGGCCAGGCAGGCAUCAAAAGAAAUAGUCUUGCGCUCAACCAGAAAGUCUGUGGUCAUUUUAAGGGUA [A125G A126G]"
reported = 0.68


The variant listed as GUUAACGGUCAUAGGCCAUGGAAACUAGGAGCACCAUUUCGCUGCCAGUGAAGAAAUGAACAAAGAAAAUCUGGGCCAUGCAGGCAUCAAAAGAAAUAGUCUUGCGCUCAACCAGAAAGUCUGUAAUCAUUUUAAGGGUA [G79U] has a reported self-cleavage of 0.06

The variant listed as GUUAACGGUCAUAGGCCAUGGAAACUAGGAGCACCAUUUCGCUGCCAGUGAAGAAAUGAACAAAGAAAAUCUGGGCCAGGCAGGCAUCAAAAGAAAUAGUCUUGCGCUCAACCAGAGAGUCUGCAAUCAUUUUAAGGGUA [A117G U124C] has a reported self-cleavage of 0.69

The variant listed as GUUAACGGUCAUAGGCCAUGGAAACUAGGAGCACCAUUUCGCUGCCAGUGAAGAAAUGAACAAAGAAAAUCUGGGCCAGGCAGGCAUCAAAAGAAAUAGUCUUGCGCUCGACCAGAAAGUCUGUAAUCAUUUUAAGGGUC [A110G A140C] has a reported self-cleavage of 0.14

The variant listed as GCUAACGGUCAUAGGCCUUGGAAACUAGGAGCACCAUUUCGCUGCCAGUGAAGAAAUGAACAAAGAAAAUCUGGGCCAGGCAGGCAUCAAAAGAAAUAGUCUUGCGCUCAACCAGAAAGUCUGUAAUCAUUUUAAGGGUA [U2C A18U] has a reported self-cleavage of 0.37

The variant listed as GUUAACGGUCAUAGGCCAUGGAAACUAGGAGCACCAUUUCGCUGCCAGUGAAGAAAUGAACAAGGAAAUUCUGGGCCAGGCAGGCAUCAAAAGAAAUAGUCUUGCGCUCAACCAGAAAGUCUGUAAUCAUUUUAAGGGUA [A64G A69U] has a reported self-cleavage of 1.58

The variant listed as GUUAACGGUCAUAGGCCAUGGAAACUAGGAGCACCAUUUCGCUGCCAGUGAAGAAAUGAACAAAGAAAAUCUGGGCCAGGCAAGCAUCAAAAGAAAUAGUCCUGCGCUCAACCAGAAAGUCUGUAAUCAUUUUAAGGGUA [G83A U102C] has a reported self-cleavage of 0.44

The variant listed as GUUAACGGUCAUAGGCCAUGGAAACUAGGAGCACCAUUUCGCUGCCAGUGAAGAAAUGAACAAAGAAAAUCUGGGCCAGGCAGGCAUCAAAAGAAAUAGUCUUGCACUCAACCAGAAAGUCUGUAAUCAUUUUAGGGGUA [G106A A135G] has a reported self-cleavage of 0.02

The variant listed as GUUAACGGUCAUAGGCCAUGGAACCUAGGAGCACCAUUUCGCUGCCAGUGAAGAAAUGAACAAAGAAAGUCUGGGCCAGGCAGGCAUCAAAAGAAAUAGUCUUGCGCUCAACCAGAAAGUCUGUAAUCAUUUUAAGGGUA [A24C A69G] has a reported self-cleavage of 1.24

The variant listed as GUUAACGGUCGUAGGCCAUGGAAACUAGGAGCACCAUUUCGCUGCCAGUGAAGAAAUGUACAAAGAAAAUCUGGGCCAGGCAGGCAUCAAAAGAAAUAGUCUUGCGCUCAACCAGAAAGUCUGUAAUCAUUUUAAGGGUA [A11G A59U] has a reported self-cleavage of 0.98

The variant listed as GUUAACGGUCAUAGGCCAUGGAAACUAGGAGCACCAUUUCGCUGCCAGUGAAGUAAUGAACAAAGAAAAUCUGGGCCAGGCAGGCAUCAAAAGAAAUGGUCUUGCGCUCAACCAGAAAGUCUGUAAUCAUUUUAAGGGUA [A54U A98G] has a reported self-cleavage of 0.2

The variant listed as GUUAACGGUCAUAGGCCAUGGAAACUAGGAGCACCAUUUCGCUGCCAGUGAAGAAAUGAACAAAGAGAAUCUGGGCCAGGCAGGCAUCAAAAGAAUUAGUCUUGCGCUCAACCAGAAAGUCUGUAAUCAUUUUAAGGGUA [A67G A96U] has a reported self-cleavage of 1.03

The variant listed as GUUAACGGUCAUAGGCCAUGGAUACUAGGAGCACCAUUUCGCUGCCAGAGAAGAAAUGAACAAAGAAAAUCUGGGCCAGGCAGGCAUCAAAAGAAAUAGUCUUGCGCUCAACCAGAAAGUCUGUAAUCAUUUUAAGGGUA [A23U U49A] has a reported self-cleavage of 1.2

The variant listed as GUUAACGGUCAUAGGCCAUGGAAACUAGGAGCACCAUUUCGCUGCCAGUGAAGAAAUGAACAAAGAAAAUCUGGGCCAGGCAGGCAUCAAAAGAAAUAGUCUUGCGCUCAACCAGAAAGUCUGCAAUCAUUUUACGGGUA [U124C A135C] has a reported self-cleavage of 0.06

// provenance: the RNAGym collection of RNA variant scans (doi:10.7554/elife.90254)
